Where a name gives a salt, the structure may show the parent alone.
Entries and their melting point values follow.

CC(=O)c1nc2c(s1)Sc1ccccc1N=C2N1CCN(C)[C@@H](CCc2cccc(F)c2)C1.Cl.Cl
130 to 132 °C
c1ccc(CC[C@H]2CN(C3=Nc4ccccc4Sc4ccccc43)CCN2)cc1
48 to 59 °C
COCC[C@H]1CN(C2=Nc3ccccc3Sc3sc(C(C)=O)nc32)CCN1C.Cl.Cl
138 to 140 °C
CCc1cc2c(s1)Sc1ccccc1N=C2N1CCN(C)[C@@H](CCOC)C1.Cl.Cl
181 to 187 °C
CCc1nc2c(s1)Sc1ccccc1N=C2N1CCN(C)[C@@H](CCc2cccc(F)c2)C1.Cl
133 to 135 °C
c1ccc(C[C@@H]2CN(C3=Nc4ccccc4Sc4ccccc43)CCN2)cc1
56 to 69 °C
COCC[C@H]1CN(C2=Nc3ccccc3Sc3scnc32)CCN1 (as salt: hydrochloride)
184 to 186 °C
COCC[C@H]1CN(C2=Nc3ccccc3Sc3sc(C(C)C)cc32)CCN1.Cl.Cl
149 to 152 °C (dec.)

Prompt: For the compound c1ccc(C[C@H]2CN(C3=Nc4ccccc4Sc4ccccc43)CCN2)cc1 , what melting point is on record?
Response: 54 to 71 °C

Prompt: Fill in the blank: the reported melting point of CN1CCN(C2=Nc3ccccc3Sc3ccccc32)C[C@@H]1CCc1ccccc1 is ____.
Response: 44 to 54 °C

====

Each entry below carries its reported melting point.
Where a name gives a salt, the structure may show the parent alone.

Prompt: Suppose we examine the compound CCc1nc2c(s1)Sc1ccccc1N=C2N1CCN(C)[C@@H](CCc2ccc(OC)cc2)C1.Cl ; what melting point value has been reported?
Response: 129 to 130 °C

Prompt: Request the reported melting point associated with CN1CCN(C2=Nc3ccccc3Sc3ccccc32)C[C@@H]1Cc1ccccc1
Response: 48 to 64 °C

Prompt: Need melting point of COCC[C@H]1CN(C2=Nc3ccccc3Sc3sc(C(C)C)cc32)CCN1C.Cl.Cl , thanks.
Response: 143 to 147 °C (dec.)

Prompt: What measured melting point goes with COCC[C@H]1CN(C2=Nc3ccccc3Sc3scnc32)CCN1C (as salt: hydrochloride) ?
Response: 146 to 148 °C

Prompt: Consider the compound shown here: CN1CCN(C2=Nc3ccccc3Sc3ccccc32)C[C@H]1Cc1ccccc1 What is its recorded melting point?
Response: 46 to 63 °C
